Experiment: NCI Yeast Anticancer Drug Screen. Data for the mlh1 rad18 strain (AID 175)
Settings: S. cerevisiae mlh1 rad18 strain growth inhibition; at 50.0 µM
The panel holds about 79,000 compounds, 15% with a hit somewhere; the sample as a whole holds those more often. The source made the active and inactive calls. Cut-off read from the data, not from the text of the source: active = growth inhibition above about 70%; inactive = the rest.
Return exactly one item of 1 (yes) for active, 0 (no) for inactive

Example cases with answers are listed next.
O=c1oc2nc(-c3ccccc3)[nH]c(=O)c2c2c1CCCC2 ... 0 (no)
Nc1nc(CCl)nc(N2CCOCC2)n1 ... 0 (no)
CS(=O)(=O)C(CCC(=O)c1ccc2ccccc2c1)C(=O)c1ccccc1 (stereo not given) ... 0 (no)
O=C(NCC(F)(F)C(F)(F)C(F)(F)C(F)(F)C(F)(F)C(F)(F)C(F)(F)F)Oc1ccccc1 ... 0 (no)
O=C(c1ccc(OC(=O)c2ccccc2O)cc1)c1ccc(OC(=O)c2ccccc2O)cc1 ... 0 (no)

I'd appreciate the recorded outcome for O=C(O)C(CO)c1ccccc1 (stereo not given) from this test. 0 (no)

I'd appreciate the recorded outcome for "CCCCNC(=O)C(c1ccccc1)c1ccccc1" from this test. 0 (no)

I'd appreciate the recorded outcome for "CC(=O)O[C@H]1CC[C@@]2(C)C(=CC(=O)[C@H]3[C@@H]4CC[C@H]([C@H](C)CCCC(C)C)[C@@]4(C)CC[C@@H]32)C1" from this test. 0 (no)

I'd appreciate the recorded outcome for "CCOC(=O)CCc1nc2ccccc2[nH]1" from this test. 0 (no)

I'd appreciate the recorded outcome for "COc1cc(/C=N/n2c(C)cc(C)c(C#N)c2=O)cc(OC)c1OC" from this test. 0 (no)

I'd appreciate the recorded outcome for "COc1cc(-c2cc(=O)c3c(OC)c(OC)c(OC)cc3o2)c(OC)c(OC)c1OC" from this test. 0 (no)

I'd appreciate the recorded outcome for "NC(=S)N/N=C/c1ccco1" from this test. 0 (no)

I'd appreciate the recorded outcome for "Cc1cc2c(cc1C)NC(=O)CC(c1ccccc1)=N2" from this test. 0 (no)

I'd appreciate the recorded outcome for CC1CCC(NC2=NCCO2)C(C)C1 (stereo not given) from this test. 0 (no)

I'd appreciate the recorded outcome for "c1ccc2c(c1)[nH]c1c2ncc2[nH]c3ccccc3c21" from this test. 0 (no)

I'd appreciate the recorded outcome for CC12CCC(C/C1=N\NC(N)=O)C2(C)C (stereo not given) from this test. 0 (no)

I'd appreciate the recorded outcome for "Nc1ccc(C(=O)c2ccccc2)cc1" from this test. 0 (no)

I'd appreciate the recorded outcome for CN1NC(=O)CC1c1ccccc1 (stereo not given) from this test. 0 (no)

I'd appreciate the recorded outcome for "CN(/N=C/C=N/N(C)C1=NCCCN1)C1=NCCCN1" from this test. 0 (no)

I'd appreciate the recorded outcome for "CC(C)(C)/C(=N\O)c1ccccc1" from this test. 0 (no)

I'd appreciate the recorded outcome for "CCCC(=O)Oc1cccc(C)c1" from this test. 0 (no)

I'd appreciate the recorded outcome for "N#CSCc1c(Cl)c(Cl)c(CSC#N)c(Cl)c1Cl" from this test. 0 (no)

I'd appreciate the recorded outcome for "Cc1nc(C)c(CC#N)s1" from this test. 0 (no)

I'd appreciate the recorded outcome for "CCN(CC)Cc1cc(N)cc(N=Nc2ccc3c(c2)c2ccccc2n3CC)c1O" from this test. 0 (no)

I'd appreciate the recorded outcome for "CC(=O)Nc1cccc(/C=C/c2ccc([N+](=O)[O-])cc2)c1" from this test. 1 (yes)

###

Experiment: NCI Yeast Anticancer Drug Screen. Data for the cln2 rad14 strain (AID 165);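 note: 0% = growth equal to vehicle treated cultures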
Details: S. cerevisiae cln2 rad14 strain, at 50.0 µM, active compounds read high
Experimental: Growth inhibition of yeast strains with defined genetic alterations is measured as a screen for potential anti-cancer activity. Selected strains with alterations in DNA damage repair or cell cycle control were exposed to compounds and growth inhibition was measured relative to vehicle treated controls. The strain used in this assay is cln2 rad14
This is part of a sample that, as a whole, favours compounds with a hit. Of some 79,000 tested, about 15% had one in any assay. The source made the active and inactive calls. No stated cut-off is given here; in the data, active means growth inhibition above about 70%; inactive means the rest.
Give growth inhibition for every item shown.

Examples with answers:
COc1ccc2c(c1)C1c3ccccc3CCN1CCC2 (configuration not stated) ... 24.1% (inactive)
CCOC(=O)C1CN(CCc2ccccc2)CCC1=O (configuration not stated) ... 16.5% (inactive)

Give one value of growth inhibition per listed molecule.
1. CC(C)N(CCC#N)C(=S)Nc1cccc2ccccc12
2. Cc1cc(N=Nc2cc(Br)cc(Br)c2)cc(C)c1N
3. N#CC(CC(=O)O)=C(c1ccccc1)c1ccccc1
4. O=C1c2ccccc2Cc2ccccc21
5. CSc1nnc(SC)s1

1. 14.9% (inactive)
2. -12.2% (inactive)
3. 11.7% (inactive)
4. -19.4% (inactive)
5. 22.9% (inactive)

###

Test: NCI Yeast Anticancer Drug Screen. Data for the mlh1 rad18 strain (AID 175)
Details: S. cerevisiae mlh1 rad18 strain growth inhibition; at 50.0 µM; active compounds read high
Compounds without any hit were thinned out: in the full panel of roughly 79,000, 15% have a hit. Where a SMILES comes first, the peptide text is derived from it.
Give growth inhibition for every item shown.
Answers are plain numbers, in %.

Examples with answers:
CCOC(=O)c1cnc(=S)n(CCC(C)C)c1N ... 4.95
CC(=O)n1[nH]c(=O)c2ncccc2c1=O ... 9
CCCCCn1c(=O)c2cc3c(=O)n(CCCCC)c(=O)c3cc2c1=O ... -5.6
CO/N=C(\C(=O)OC(=NC1CCCCC1)NC1CCCCC1)c1csc(NC(c2ccccc2)(c2ccccc2)c2ccccc2)n1 ... -6.5
Cc1c(C)c(CN)c(C)c(C)c1CN ... -31.7
COC(=O)C(Cc1c[nH]c2ccccc12)NC(=O)C(Cc1cnc[nH]1)NC(=O)C1CCC(=O)N1C(=O)OCc1ccccc1 (configuration not stated) ... -5.1
CC(=O)NCCCCCC(=O)O ... 20.7
CCSc1nc(C)c(C)c(=O)[nH]1 ... 12.8

Give one value of growth inhibition per listed compound.
1. O=C1OC(c2ccc(Cl)cc2)=C/C1=C/c1ccccc1O
2. COCNC(=O)NCC(F)(F)C(F)(F)C(F)(F)C(F)(F)C(F)(F)C(F)(F)C(F)(F)F
3. CCCCCCCCCCCCCCCC(=O)OCC1OC(OC(=O)CCCCCCCCCCCCCCC)C(OC(=O)CCCCCCCCCCCCCCC)C(OC(=O)CCCCCCCCCCCCCCC)C1OC(=O)CCCCCCCCCCCCCCC (configuration not stated)
4. O=[N+]([O-])c1cc2c3c(cccc3c1O)CC2
5. CCCSS[C@H]1NC(=O)[C@H]1NC(=O)COc1ccccc1
6. CCOC(=O)/C=C\n1c(=O)cc(C)c2ccccc21
7. O=[N+]([O-])c1ccc(N/N=C2/CC3=C2CCCCCCCCCC3)c([N+](=O)[O-])c1

5.05
28.5
-14.8
24
-3.6
-1.15
-13.4

Give one value of growth inhibition per listed compound.
1. O=S1(=O)C(c2ccccc2)C(N2CCCCC2)C1C1CC2c3ccccc3C1c1ccccc12 (configuration not stated)
2. Cc1cc(CC(N)C(=O)O)ccc1O (configuration not stated)
3. CCOC(OCC)C(=O)NC(C)c1ccc(O)c(OC)c1 (configuration not stated)
4. CCNC(=O)C1CCN(Cc2c[nH]c3ccccc23)CC1
5. OCC(O)C1OC(n2cnc3c(=S)nc[nH]c32)C(O)C1O (configuration not stated)

1. 30.2
2. -16.6
3. 3.2
4. -18.1
5. -10.6

Give one value of growth inhibition per listed compound.
1. C=CCc1cc(C)ccc1OC(=O)c1cc([N+](=O)[O-])cc([N+](=O)[O-])c1
2. CC(C)CC(NC(=O)C(Cc1ccccc1)NC(=O)CNC(=O)CN)C(=O)O (configuration not stated) (H-GGFL-OH; configuration not given here)

[0.6, -12.4]

###

Test: NCI Yeast Anticancer Drug Screen. Data for the rad50 strain (AID 155);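 note: 0% = growth of vehicle-only cultures of the same strain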
Settings: S. cerevisiae rad50 strain growth inhibition; at 50.0 µM; active compounds read high
About 79,000 compounds went through this panel and 15% of them were active in at least one assay; those are over-represented in the sample as a whole.
result type: growth inhibition (%)
Give bare numbers, in %.

Examples with answers:
CN(C)c1nc2nccnc2c(=O)[nH]1 ... 11.4
CC(=O)OC1CCC2(C)C(CCC3C2C(=O)C(Br)C2(C)C(C(C)=O)CCC32)C1 (stereo not drawn) ... -1.2
Cc1cccc(/C=C/c2cccc[n+]2[O-])[n+]1[O-] ... 3.1
COC(C(N)=O)c1ccccc1 (stereo not drawn) ... -9.8
Clc1ccc2c(c1)-c1c3c(nn1-c1ccccc1)-c1ccccc1SC3O2 (stereo not drawn) ... 23.3
CCC1OC(=O)C(C)C(OC2CC(C)(O)C(O)C(C)O2)C(C)C(O)C(C)(O)CC(C)C(=O)C(C)C(O)C1C (stereo not drawn) ... -14.4
CC(C)(CCN(CC(=O)O)CC(=O)O)[N+](=O)[O-] ... -16.1
c1ccc(CCNCc2ccc(CNCCc3ccccc3)cc2)cc1 ... -5.75

Give one value of growth inhibition per listed compound.
1. CC(O)C(C)NC(C)C(C)O (stereo not drawn)
2. CCOC(=O)c1cc2cc(Cc3ccc4[nH]c(C(=O)OCC)cc4c3)ccc2[nH]1
3. COC(=O)/C(=C\C(=O)c1ccc(Br)cc1)NN=C(c1ccccc1)c1ccccc1
4. CN(Cc1ccccc1)c1ccc(C(=O)O)cc1
5. CC(=O)CC1CCCC1
6. CCN(CC)CCOC(NC(C)=O)(c1ccccc1)c1ccccc1
7. COCC(=O)C(C(C)=O)C(c1ccncc1)C(C(C)=O)C(=O)COC (stereo not drawn)

[0.4, -12.8, -20.3, -2.65, 19.4, 3.5, -7.75]

Give one value of growth inhibition per listed compound.
1. CC(=O)Nc1cccc(/C=C/c2ccc([N+](=O)[O-])cc2)c1
2. CN1C=CC(=Cc2ccccc2)C=C1
3. CC(C)(C)c1cc(C2OC(N)=C(O)C2=O)cc(C(C)(C)C)c1O (stereo not drawn)
4. CC(=O)OCC1OC(n2cc(I)c(=O)[nH]c2=O)C(OC(C)=O)C(OC(C)=O)C1OC(C)=O (stereo not drawn)

52.8
3.3
13.4
-29.9
